target: FKBP (Homo sapiens); experiment: Ki test procedure: inhibition of peptidyl-prolyl isomerase (rotamase) activity, chymotrypsin-coupled assay; type: biochemical; conditions: apparent Ki, substrate N-succinyl-Ala-Phe-Pro-Phe-p-nitroanilide, Table I
Sequence (P62942 whole entry): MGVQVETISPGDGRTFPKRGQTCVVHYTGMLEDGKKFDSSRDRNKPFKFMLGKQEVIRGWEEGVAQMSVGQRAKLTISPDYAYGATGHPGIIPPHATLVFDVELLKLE
pKi: −log10 of the molar value.
Observable: pKi

(A) CCC(C)(C)C(=O)C(=O)N1CCC[C@H]1C(=O)OC/C=C/c1cc(OC)c(OC)c(OC)c1
(B) CCC(C)(C)C(=O)C(=O)N1CCC[C@H]1C(=O)OCCCc1cc(OC)c(OC)c(OC)c1
(C) CCC(C)(C)C(=O)C(=O)N1CCC[C@H]1C(=O)OC/C=C/c1ccc(Cl)c(Cl)c1
Problem: Output the entries ranked by pKi from maximum down to minimum. Write the labels in rank order as requested.
Solution: B, A, C
(B: 7.60, A: 6.90, C: 5.60)
